The measured values listed here are drawn from the supplement of paper PMC7600603.

- System: DLD1 NRF2-GOF
- Test Protocol: TC50 cytotoxicity; higher = less toxic
- Run Parameters: 72 h; CellTox Green cytotoxicity
Reported TC50 cytotoxicity by item:

Known TC50 cytotoxicity results, listed for orientation:
| Compound | TC50 cytotoxicity |
| --- | --- |
| Cc1noc2c1-c1ccccc1C(c1ccc(Cl)cc1)=N[C@H]2CC(N)=O | > 10 µM |
| NC(=O)NO [Hydroxyurea] | > 1000 µM |
| CC(C)C[C@H](NC(=O)CNC(=O)c1cc(Cl)ccc1Cl)B(O)O | 0.246 µM |
| C[C@H]1C[C@@H]2[C@H]([C@@H](O)C[C@@]3(C)[C@H]2CC[C@]3(O)C(=O)CO)[C@@]2(C)C=CC(=O)C=C12 | > 10 µM |
| O=C(NOCCO)c1ccc2cncn2c1Nc1ccc(I)cc1F | > 2.5 µM |
| CN1CCN(C(=O)c2ccc3cc(CCNc4ncnc5ccc(C#N)cc45)ccc3c2)CC1 | > 1 µM |
| CN(C)C1CCN(C(=O)c2ccc(NC(=O)Nc3ccc(-c4nc(N5CCOCC5)nc(N5CCOCC5)n4)cc3)cc2)CC1 | > 1 µM |

Attention now shifts to the item below.
Please report the recorded TC50 cytotoxicity for CN[C@@H](C)C(=O)N[C@H](C(=O)N1CCC[C@H]1c1nc(C(=O)c2ccc(F)cc2)cs1)C1CCCCC1 . > 25 µM

====

- Test system: DLD1 NRF2-WT
- Test Protocol: drug sensitivity score (DSS) viability (DSS score); higher = more sensitive; extreme values may be limits of the assay
- Run Parameters: 72 h; CellTiter-Glo viability
Our labelling divides records by drug sensitivity score into ranges: lower band = under 2, central band = from 2 up to 7, upper band = 7 and over

| Molecule | Study Target | Qualitative Label |
| --- | --- | --- |
| CCN1CCN(c2ccc(Nc3cc(N(C)C(=O)Nc4c(Cl)c(OC)cc(OC)c4Cl)ncn3)cc2)CC1 | DLD1 NRF2-WT | lower band |
| C[C@@H](Nc1cc(F)cc(F)c1)c1cc(C(=O)N(C)C)cc2c(=O)cc(N3CCOCC3)oc12 | DLD1 NRF2-WT | central band |
| COc1c(C)cnc(Cn2cnc3c(Cl)nc(N)nc32)c1C | DLD1 NRF2-WT | upper band |
| CO[C@H]1C[C@@H]2CC[C@@H](C)[C@@](O)(O2)C(=O)C(=O)N2CCCC[C@H]2C(=O)O[C@H]([C@H](C)C[C@@H]2CC[C@@H](O)[C@H](OC)C2)CC(=O)[C@H](C)/C=C(\C)[C@@H](O)[C@@H](OC)C(=O)[C@H](C)C[C@H](C)/C=C/C=C/C=C/1C | DLD1 NRF2-WT | central band |
| Nc1ccccc1NC(=O)c1ccc(CNC(=O)OCc2cccnc2)cc1 | DLD1 NRF2-WT | lower band |
| COc1cc(OC2CCN(C)CC2)ccc1Nc1ncc2c(n1)n(C1CCCC1)c(=O)n2C | DLD1 NRF2-WT | upper band |

The entry to classify is CC(C)[C@H](C(=O)Nc1ccc(C(=O)NO)cc1)c1ccccc1 ; which class holds it? upper band

The entry to classify is Cc1nc(NC(=O)N2CCC[C@H]2C(N)=O)sc1-c1ccnc(C(C)(C)C(F)(F)F)c1 ; which class holds it? central band

The entry to classify is COc1ccc(-c2ccc3c(N4CCOC[C@@H]4C)nc(N4CCOC[C@@H]4C)nc3n2)cc1CO ; which class holds it? upper band

The entry to classify is CS(=O)(=O)CCNCc1ccc(-c2ccc3ncnc(Nc4ccc(OCc5cccc(F)c5)c(Cl)c4)c3c2)o1 ; which class holds it? central band

The entry to classify is C[C@H]1C[C@@H](n2c(Nc3ccc(OC(F)(F)F)cc3)nc3cc(CCC(=O)O)ccc32)CC(C)(C)C1 ; which class holds it? lower band

====

- Test system: DLD1 NRF2-GOF
- Test Protocol: TC50 cytotoxicity; higher = less toxic
- Run Parameters: 72 h; CellTox Green cytotoxicity
Reported TC50 cytotoxicity by item:

Known TC50 cytotoxicity results, listed for orientation:
| Compound | Property Name | Result |
| --- | --- | --- |
| COc1ccc(S(=O)(=O)Nc2cccnc2Nc2ccc(O)cc2)cc1 [ABT-751] | TC50 cytotoxicity | 1.07 µM |
| COc1c(OCCCN2CCOCC2)ccc2c1N=C(NC(=O)c1cnc(N)nc1)N1CCN=C21 [Copanlisib] | TC50 cytotoxicity | > 1 µM |
| C=C1C[C@@H]2[C@H](CC[C@]3(C)C(=O)CC[C@@H]23)[C@@]2(C)C=CC(=O)C=C12 [Exemestane] | TC50 cytotoxicity | > 10 µM |
| CC(=O)Nc1ccc(C(=O)Nc2ccccc2N)cc1 [Tacedinaline] | TC50 cytotoxicity | > 1 µM |
| Cc1cccc(CC(=O)N2CCc3c2ccc(-c2cn(C)c4ncnc(N)c24)c3F)n1 | TC50 cytotoxicity | > 2.5 µM |

Please report the recorded TC50 cytotoxicity for COc1cccc2c1C(=O)c1c(O)c3c(c(O)c1C2=O)C[C@@](O)(C(=O)CO)C[C@@H]3O[C@H]1C[C@H](N)[C@H](O)[C@H](C)O1 [Doxorubicin] . > 1 µM

Please report the recorded TC50 cytotoxicity for O=C(NC1CCNCC1)c1n[nH]cc1NC(=O)c1c(Cl)cccc1Cl [AT7519] . > 10 µM

====

Reported drug sensitivity score by item:
- Tested on: DLD1 NRF2-WT
- Test Protocol: drug sensitivity score (DSS) cytotoxicity (DSS score); higher = more toxic; extreme values may be limits of the assay
- Run Parameters: 72 h; CellTox Green cytotoxicity
I only need the number, thanks.

| Compound | drug sensitivity score |
| --- | --- |
| CN1CCN(c2cc(C(=O)Nc3ccc4c(c3)-c3c(c(C(N)=O)nn3-c3ccc(F)cc3)CC4)c(Cl)cn2)CC1 [PHA 408] | 0 |
| COc1cc2c(cc1OCCCN1CCCC1)N=C(N)C21CCC1 [A-366] | 0 |
| COc1cc(N2CCN(C)CC2)ccc1Nc1nccc(-c2cn(C)c3cnccc23)n1 [AZ191] | 0.3 |

Attention now shifts to the item below.
Please report the recorded drug sensitivity score for CCc1cnn2c(NCc3ccc[n+]([O-])c3)cc(N3CCCC[C@H]3CCO)nc12 [Dinaciclib] . 3.3

====

- Tested on: DLD1 NRF2-GOF
- Test Protocol: drug sensitivity score (DSS) cytotoxicity (DSS score); higher = more toxic; extreme values may be limits of the assay
- Run Parameters: 72 h; CellTox Green cytotoxicity
Property Name: drug sensitivity score
I only need the number, thanks.

| Molecule | Property Name | Result Number |
| --- | --- | --- |
| N#CCNC(=O)c1ccc(-c2ccnc(Nc3ccc(N4CCOCC4)cc3)n2)cc1 | drug sensitivity score | 0.1 |
| COc1nc(N)nc2c1ncn2[C@@H]1O[C@H](CO)[C@@H](O)[C@@H]1O | drug sensitivity score | 0 |
| CC(=O)c1c(C)c2cnc(Nc3ccc(N4CCNCC4)cn3)nc2n(C2CCCC2)c1=O | drug sensitivity score | 0 |
| FC(F)(F)c1ccc(CNc2ccc(Cc3c[nH]c4ncc(Cl)cc34)cn2)cn1 | drug sensitivity score | 0 |
| CCCCNc1ncc(C(=O)NCc2ccc(-n3ccnc3)cc2)c(NC2CCC(O)CC2)n1 (stereo not drawn) | drug sensitivity score | 0 |

Please report the recorded drug sensitivity score for CCC(C)n1ncn(-c2ccc(N3CCN(c4ccc(OCC5COC(Cn6cncn6)(c6ccc(Cl)cc6Cl)O5)cc4)CC3)cc2)c1=O (stereo not drawn) . 0

Please report the recorded drug sensitivity score for Nc1ncnc2c1nc(Cl)n2[C@@H]1O[C@H](CO)[C@@H](O)[C@H]1O . 0.2

Please report the recorded drug sensitivity score for CN1CC[C@@H](NC(=O)Nc2ccc(C#N)cc2)C[C@@H]1c1nc2ccccc2[nH]1 . 0

====

- System: DLD1 NRF2-WT
- Run Parameters: 72 h; CellTiter-Glo viability
Reported EC50 viability by item:
Answer with a number only, understood to be in nM.

| Record Smiles | Study Target | EC50 viability [nM] |
| --- | --- | --- |
| CCn1c(-c2nonc2N)nc2cnc(Oc3cccc(NC(=O)c4ccc(OCCN5CCOCC5)cc4)c3)cc21 | DLD1 NRF2-WT | 1990 |
| COc1cc(Nc2c(C#N)cnc3cc(OCCCN4CCN(C)CC4)c(OC)cc23)c(Cl)cc1Cl | DLD1 NRF2-WT | 1220 |
| O=C1c2c(O)ccc(O)c2C(=O)c2c(NCCNCCO)ccc(NCCNCCO)c21 | DLD1 NRF2-WT | 67.4 |
| CN1CC[C@H](c2c(O)cc(O)c3c(=O)cc(-c4ccccc4Cl)oc23)[C@H](O)C1 | DLD1 NRF2-WT | 156 |
| Cc1ncc(-c2ccnc(Nc3ccc(S(C)(=O)=O)cc3)n2)n1C(C)C | DLD1 NRF2-WT | 1020 |
| Cc1ncc(Cl)cc1NCc1ccc(C(=O)N[C@@H](CC2CCCC2)C(=O)NC2CC2)s1 | DLD1 NRF2-WT | 401 |

Please report the recorded EC50 viability for CC(C)C[C@H](NC(=O)[C@H](CCc1ccccc1)NC(=O)CN1CCOCC1)C(=O)N[C@@H](Cc1ccccc1)C(=O)N[C@@H](CC(C)C)C(=O)[C@@]1(C)CO1 . 6.5

Please report the recorded EC50 viability for CC1=NN(c2ccc(C(=O)O)cc2)C(=O)C1=Cc1ccc(-c2cc(C)c(C)cc2[N+](=O)[O-])o1 . 5030

Please report the recorded EC50 viability for Cc1c2oc3c(C)ccc(C(=O)N[C@@H]4C(=O)N[C@H](C(C)C)C(=O)N5CCC[C@H]5C(=O)N(C)CC(=O)N(C)[C@@H](C(C)C)C(=O)O[C@@H]4C)c3nc-2c(C(=O)N[C@@H]2C(=O)N[C@H](C(C)C)C(=O)N3CCC[C@H]3C(=O)N(C)CC(=O)N(C)[C@@H](C(C)C)C(=O)O[C@@H]2C)c(N)c1=O . 6.7

Please report the recorded EC50 viability for Nc1ccn([C@@H]2O[C@H](CO)[C@@H](O)[C@@H]2O)c(=O)n1 . 650

Please report the recorded EC50 viability for O=C(/C=C/c1cccnc1)NCCCCC1CCN(C(=O)c2ccccc2)CC1 . 4

Please report the recorded EC50 viability for O=C(NC1CCNCC1)c1n[nH]cc1NC(=O)c1c(Cl)cccc1Cl . 169
